# Test system: HEPG2
# TEST: Euclidean distance of Cell Painting phenotypic profile (signed KS, 77 features) to DMSO centroid (dimensionless distance); 5 or 10 uM (library dependent); higher = stronger phenotypic change vs DMSO (phenoactivity)
# TEST_CONTEXT: 48 h
Counter-ions that a name gives are not always drawn.
Threshold rule: Euclidean distance greater than or equal to 1 is y; below that, n.

COMPOUND	ASSIGNED_CATEGORY
Cc1nc2n(c(=O)c1CCN1CCC(c3noc4cc(F)ccc34)CC1)CCCC2O (stereo not given)	n
Cc1ccc(C)c(OCCCC(C)(C)C(=O)O)c1	y
CCCCN1CCCC[C@H]1C(=O)Nc1c(C)cccc1C [Levobupivacaine HCl]	n
O=C(NCc1c(F)cc(F)cc1F)c1cn2c(c(O)c1=O)C(=O)N1[C@H]3CC[C@H](C3)O[C@@H]1C2	y
Clc1ccc2c(c1)C(N1CCNCC1)=Nc1ccccc1O2	n
O=C1c2c(O)ccc(O)c2C(=O)c2c(NCCNCCO)ccc(NCCNCCO)c21 [Mitoxantrone 2HCl]	y
Cn1nnnc1SCC1=C(C(=O)O)N2C(=O)[C@@H](NC(=O)[C@H](OC=O)c3ccccc3)[C@H]2SC1 [Cefamandole nafate]	n
O=C(O)CCc1ccc(NCc2cccc(Oc3ccccc3)c2)cc1	y
CC1(C)[C@@H](O)CC[C@]2(C)[C@H]3C(=O)C=C4[C@@H]5C[C@@](C)(C(=O)O)CC[C@]5(C)CC[C@@]4(C)[C@]3(C)CC[C@@H]12	n
COc1ccccc1S(=O)(=O)Nc1ccc2c(c1)CN(C)C(=O)N2	y

Please check the record Nc1nc2[nH]cc(CCc3ccc(C(=O)N[C@@H](CCC(=O)O)C(=O)O)cc3)c2c(=O)[nH]1 and state if its Euclidean distance is at or above 1.
y

---

# Tested on: A549
# TEST: Euclidean distance of Cell Painting phenotypic profile (signed KS, 77 features) to DMSO centroid (dimensionless distance); 5 or 10 uM (library dependent); higher = stronger phenotypic change vs DMSO (phenoactivity)
# TEST_CONTEXT: 48 h
Where a name gives a salt, the structure may show the parent alone.
METRIC: Euclidean distance
Would you mind answering with just the numeric figure?

COMPOUND	TARGET_SYSTEM	METRIC	MEASUREMENT
CN(C)CCN(Cc1ccc(Cl)cc1)c1ccccn1 [Chloropyramine hydrochloride]	A549	Euclidean distance	1.23

Query: Euclidean distance; subject: COc1ccc(COc2ccc(Cc3cnc(N)nc3N)cc2OC)cc1
1.1

Query: Euclidean distance; subject: c1coc(CNc2ncnc3[nH]cnc23)c1 [Kinetin]
1.02

Query: Euclidean distance; subject: COc1cc2ncnc(Sc3nnc(C)s3)c2cc1OC
1.44

---

Measured Euclidean distance values are reported for all entries that follow.
# Tested on: 786-O
# TEST: Euclidean distance of Cell Painting phenotypic profile (signed KS, 77 features) to DMSO centroid (dimensionless distance); 5 or 10 uM (library dependent); higher = stronger phenotypic change vs DMSO (phenoactivity)
# TEST_CONTEXT: 48 h
Counter-ions that a name gives are not always drawn.

MOLECULE	Euclidean distance
NC(=O)c1cccc2cn(-c3ccc([C@@H]4CCCNC4)cc3)nc12 [Niraparib (MK-4827) tosylate]	2.41
CCCC(CCC)C(=O)O [Divalproex Sodium]	1.31

Now for a further molecule.
Query: Euclidean distance; subject: C[C@]12CCC(=O)C=C1CC[C@@H]1[C@@H]2[C@@H](O)C[C@@]2(C)[C@H]1CC[C@]2(O)C(=O)CO [Hydrocortisone]
0.925
